Catalogue of pIC50 readings, one per entry.
Tested on: HeLa
Test: Antitumor activity against human HeLa cells assessed as inhibition of cell proliferation after 48 hrs by MTT assay
Format: functional, cell-based
Settings: read-out: IC50
pIC50: −log10 of the molar value.

# COMPOUND, pIC50
measured = [
    ("CCOC(=O)C1=C(N/N=C(/Cl)c2ccc([N+](=O)[O-])cc2)Nc2[nH]nc(C)c2C1c1ccc(N(C)C)cc1 (stereo not drawn)", 4.34),
    ("CCOC(=O)C1=C(N/C=N/c2ccc(C)cc2)Nc2[nH]nc(C)c2C1c1ccc(N(C)C)cc1 (stereo not drawn)", 4.36),
    ("CCOC(=O)C1=C(N/N=C(/C(=O)Br)c2ccc(Br)cc2)Nc2[nH]nc(C)c2C1c1ccc(N(C)C)cc1 (stereo not drawn)", 4.16),
]

====

Experiment: Displacement of methyl green from DNA (unknown origin) incubated in dark for 24 hrs
pIC50: −log10 of the molar value.

# COMPOUND, pIC50
rows = [
    ("CCOC(=O)C1=C(N/C=N/c2ccc(C)cc2)Nc2[nH]nc(C)c2C1c1ccc(N(C)C)cc1 (stereo not given)", 4.12),
    ("CCOC(=O)C1=C(N)Nc2[nH]nc(C)c2C1c1ccc(N(C)C)cc1 (stereo not given)", 4.49),
    ("CCOC(=O)C1=C(N/C=N/c2ccc([N+](=O)[O-])cc2)Nc2[nH]nc(C)c2C1c1ccc(N(C)C)cc1 (stereo not given)", 4.22),
    ("CCOC(=O)C1=C(N/C=N/c2ccccn2)Nc2[nH]nc(C)c2C1c1ccc(N(C)C)cc1 (stereo not given)", 4.55),
    ("CCOC(=O)C1=C(N/C=N/c2cccnc2Cl)Nc2[nH]nc(C)c2C1c1ccc(N(C)C)cc1 (stereo not given)", 4.52),
]

====

System: Chromobacterium violaceum
Experiment: Inhibition of quorum sensing system in Chromobacterium violaceum ATCC 12472 assessed as diameter of violacein pigment inhibition at 5 mg/ml after 48 hrs
Catalogue of diameter of the inhibition zone (DIZ) readings, one per entry.

# COMPOUND, diameter of the inhibition zone (DIZ)
records = [
    ("CCOC(=O)C1=C(N/C=N/c2nnc(S(N)(=O)=O)s2)Nc2[nH]nc(C)c2C1c1ccc(N(C)C)cc1 (stereo unspecified)", "9 mm"),
    ("CCOC(=O)C1=C(N/C=N/c2ncc(-c3ccccc3)s2)Nc2[nH]nc(C)c2C1c1ccc(N(C)C)cc1 (stereo unspecified)", "3 mm"),
    ("CCOC(=O)C1=C(NN=C(C(C)=O)C(C)=O)Nc2[nH]nc(C)c2C1c1ccc(N(C)C)cc1 (stereo unspecified)", "< 2 mm"),
    ("CCOC(=O)C1=C(N/C=N/c2ccc(C)cc2)Nc2[nH]nc(C)c2C1c1ccc(N(C)C)cc1 (stereo unspecified)", "< 2 mm"),
    ("CCOC(=O)C1=C(NN=C(C#N)C#N)Nc2[nH]nc(C)c2C1c1ccc(N(C)C)cc1 (stereo unspecified)", "< 2 mm"),
    ("CCOC(=O)C1=C(N)Nc2[nH]nc(C)c2C1c1ccc(N(C)C)cc1 (stereo unspecified)", "< 2 mm"),
    ("CCOC(=O)C1=C(N/C=N/c2ccc([N+](=O)[O-])cc2)Nc2[nH]nc(C)c2C1c1ccc(N(C)C)cc1 (stereo unspecified)", "7 mm"),
    ("CCOC(=O)C1=C(N/C=N/c2ccccn2)Nc2[nH]nc(C)c2C1c1ccc(N(C)C)cc1 (stereo unspecified)", "< 2 mm"),
    ("CCOC(=O)C1=C(N/N=C(/Br)c2ccccc2)Nc2[nH]nc(C)c2C1c1ccc(N(C)C)cc1 (stereo unspecified)", "11 mm"),
    ("CCOC(=O)C1=C(N/N=C(/Cl)c2ccc([N+](=O)[O-])cc2)Nc2[nH]nc(C)c2C1c1ccc(N(C)C)cc1 (stereo unspecified)", "< 2 mm"),
    ("CCOC(=O)C1=C(N/N=C(/C#N)C(=O)OCC)Nc2[nH]nc(C)c2C1c1ccc(N(C)C)cc1 (stereo unspecified)", "< 2 mm"),
    ("CCOC(=O)C1=C(N/N=C(\\C#N)C(N)=O)Nc2[nH]nc(C)c2C1c1ccc(N(C)C)cc1 (stereo unspecified)", "< 2 mm"),
    ("CCOC(=O)C(=NNC1=C(C(=O)OCC)C(c2ccc(N(C)C)cc2)c2c(C)n[nH]c2N1)C(=O)OCC (stereo unspecified)", "< 2 mm"),
    ("Oc1cc(O)c2c(c1)O[C@H](c1ccc(O)c(O)c1)[C@@H](O)C2", "2 mm"),
    ("CCOC(=O)C1=C(N/N=C(\\c2ccc([N+](=O)[O-])cc2)N2CCN(c3ccc(F)cc3)CC2)Nc2[nH]nc(C)c2C1c1ccc(N(C)C)cc1 (stereo unspecified)", "< 2 mm"),
    ("CCOC(=O)C1=C(N/N=C(/C(=O)Br)c2ccc(Br)cc2)Nc2[nH]nc(C)c2C1c1ccc(N(C)C)cc1 (stereo unspecified)", "< 2 mm"),
    ("CCOC(=O)C1=C(N/C=N/c2cccnc2Cl)Nc2[nH]nc(C)c2C1c1ccc(N(C)C)cc1 (stereo unspecified)", "< 2 mm"),
    ("CCOC(=O)C1=C(N/N=C(\\C(C)=O)C(=O)c2ccccc2)Nc2[nH]nc(C)c2C1c1ccc(N(C)C)cc1 (stereo unspecified)", "< 2 mm"),
    ("CCOC(=O)C1=C(N/N=C(/C(C)=O)C(=O)OCC)Nc2[nH]nc(C)c2C1c1ccc(N(C)C)cc1 (stereo unspecified)", "< 2 mm"),
    ("CCOC(=O)C1=C(N/N=C(/C(=O)Br)c2ccc(Cl)cc2)Nc2[nH]nc(C)c2C1c1ccc(N(C)C)cc1 (stereo unspecified)", "< 2 mm"),
    ("CCOC(=O)C1=C(N/N=C(/Cl)C#N)Nc2[nH]nc(C)c2C1c1ccc(N(C)C)cc1 (stereo unspecified)", "< 2 mm"),
]

====

Catalogue of IC50 readings, one per entry.
Tested on: HeLa
Assay: Antitumor activity against human HeLa cells assessed as inhibition of cell proliferation after 48 hrs by MTT assay
Format: functional, cell-based
Settings: read-out: IC50

# MOLECULE, TESTED ON, LT GT EQ, IC50 (µM)
rows = [
    ("CCOC(=O)C1=C(N/N=C(/Cl)C#N)Nc2[nH]nc(C)c2C1c1ccc(N(C)C)cc1 (configuration not stated)", "HeLa", "=", 26.2),
    ("CCOC(=O)C1=C(N/C=N/c2ncc(-c3ccccc3)s2)Nc2[nH]nc(C)c2C1c1ccc(N(C)C)cc1 (configuration not stated)", "HeLa", "=", 15.4),
    ("CCOC(=O)C1=C(NN=C(C#N)C#N)Nc2[nH]nc(C)c2C1c1ccc(N(C)C)cc1 (configuration not stated)", "HeLa", "=", 15.2),
    ("CCOC(=O)C1=C(N/N=C(\\C(C)=O)C(=O)c2ccccc2)Nc2[nH]nc(C)c2C1c1ccc(N(C)C)cc1 (configuration not stated)", "HeLa", "=", 47.4),
    ("CCOC(=O)C1=C(N/N=C(/C#N)C(=O)OCC)Nc2[nH]nc(C)c2C1c1ccc(N(C)C)cc1 (configuration not stated)", "HeLa", "=", 39.2),
    ("CCOC(=O)C1=C(N/N=C(/Br)c2ccccc2)Nc2[nH]nc(C)c2C1c1ccc(N(C)C)cc1 (configuration not stated)", "HeLa", "=", 75.7),
    ("CCOC(=O)C1=C(N/C=N/c2ccc([N+](=O)[O-])cc2)Nc2[nH]nc(C)c2C1c1ccc(N(C)C)cc1 (configuration not stated)", "HeLa", "=", 57.8),
    ("CCOC(=O)C(=NNC1=C(C(=O)OCC)C(c2ccc(N(C)C)cc2)c2c(C)n[nH]c2N1)C(=O)OCC (configuration not stated)", "HeLa", "=", 83.8),
    ("CCOC(=O)C1=C(N/N=C(\\C#N)C(N)=O)Nc2[nH]nc(C)c2C1c1ccc(N(C)C)cc1 (configuration not stated)", "HeLa", "=", 47.3),
    ("CCOC(=O)C1=C(NN=C(C(C)=O)C(C)=O)Nc2[nH]nc(C)c2C1c1ccc(N(C)C)cc1 (configuration not stated)", "HeLa", "=", 17),
    ("CCOC(=O)C1=C(N/N=C(/C(=O)Br)c2ccc(Cl)cc2)Nc2[nH]nc(C)c2C1c1ccc(N(C)C)cc1 (configuration not stated)", "HeLa", "=", 49.3),
    ("CCOC(=O)C1=C(N)Nc2[nH]nc(C)c2C1c1ccc(N(C)C)cc1 (configuration not stated)", "HeLa", "=", 6.22),
    ("CCOC(=O)C1=C(N/N=C(\\c2ccc([N+](=O)[O-])cc2)N2CCN(c3ccc(F)cc3)CC2)Nc2[nH]nc(C)c2C1c1ccc(N(C)C)cc1 (configuration not stated)", "HeLa", "=", 87),
    ("CCOC(=O)C1=C(N/C=N/c2ccccn2)Nc2[nH]nc(C)c2C1c1ccc(N(C)C)cc1 (configuration not stated)", "HeLa", "=", 29.2),
    ("CCOC(=O)C1=C(N/N=C(/C(C)=O)C(=O)OCC)Nc2[nH]nc(C)c2C1c1ccc(N(C)C)cc1 (configuration not stated)", "HeLa", ">", 100),
    ("CCOC(=O)C1=C(N/C=N/c2nnc(S(N)(=O)=O)s2)Nc2[nH]nc(C)c2C1c1ccc(N(C)C)cc1 (configuration not stated)", "HeLa", "=", 26.3),
    ("CCOC(=O)C1=C(N/C=N/c2cccnc2Cl)Nc2[nH]nc(C)c2C1c1ccc(N(C)C)cc1 (configuration not stated)", "HeLa", "=", 4.63),
]
